Test system: 126254-015-R-J1-PDC complex spheroid growth, % test/control
Test: Anticancer human tumor 126254-015-R-J1-PDC patient-derived soft tissue sarcoma cell line growth inhibition [Asc]
Conditions: curve of first compound; second compound 0.0316 µM
MEASURED_METRIC: IC50 (nM)
Quick reminder: number only, in nM, skip the unit.

[
  {
    "COMPOUND": "O=C(c1cc(Cc2n[nH]c(=O)c3ccccc23)ccc1F)N1CCN(C(=O)C2CC2)CC1 + CNC(C)C(=O)NC1CN(S(=O)(=O)c2cccc(S(=O)(=O)N3CCC4CCC(C(=O)NC(c5ccccc5)c5ccccc5)N4C(=O)C(NC(=O)C(C)NC)C3)c2)CCC2CCC(C(=O)NC(c3ccccc3)c3ccccc3)N2C1=O",
    "VALUE_UNIT": "nM",
    "IC50": 6180
  },
  {
    "COMPOUND": "COc1c(OCCCN2CCOCC2)ccc2c3n(c(=NC(=O)c4cnc(N)nc4)nc12)CCN3 + CNC(C)C(=O)NC1CN(S(=O)(=O)c2cccc(S(=O)(=O)N3CCC4CCC(C(=O)NC(c5ccccc5)c5ccccc5)N4C(=O)C(NC(=O)C(C)NC)C3)c2)CCC2CCC(C(=O)NC(c3ccccc3)c3ccccc3)N2C1=O",
    "VALUE_UNIT": "nM",
    "IC50": 53.3
  },
  {
    "COMPOUND": "O=C(c1ccc(F)c(F)c1Nc1ccc(I)cc1F)N1CC(O)([C@@H]2CCCCN2)C1 + CNC(C)C(=O)NC1CN(S(=O)(=O)c2cccc(S(=O)(=O)N3CCC4CCC(C(=O)NC(c5ccccc5)c5ccccc5)N4C(=O)C(NC(=O)C(C)NC)C3)c2)CCC2CCC(C(=O)NC(c3ccccc3)c3ccccc3)N2C1=O",
    "VALUE_UNIT": "nM",
    "IC50": 377
  }
]

input: # lookup: 126254-015-R-J1-PDC complex spheroid growth, % test/control IC50, key = C#Cc1c(F)ccc2cc(O)cc(-c3ncc4c(N5CC6CCC(C5)N6)nc(OCC56CCCN5CC(F)C6)nc4c3F)c12 (configuration not stated) + CNC(C)C(=O)NC1CN(S(=O)(=O)c2cccc(S(=O)(=O)N3CCC4CCC(C(=O)NC(c5ccccc5)c5ccccc5)N4C(=O)C(NC(=O)C(C)NC)C3)c2)CCC2CCC(C(=O)NC(c3ccccc3)c3ccccc3)N2C1=O
output: 7580

----------
Tested on: 126254-015-R-J1-PDC complex spheroid growth, % test/control
Assay: Anticancer human tumor 126254-015-R-J1-PDC cell line growth inhibition [Asc];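 further: spheroids exposed to compound for seven days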
Details: curve of first compound; second compound 3 µM
MEASURED_METRIC: IC50 (nM)

a. O=C(c1ccc(F)c(F)c1Nc1ccc(I)cc1F)N1CC(O)([C@@H]2CCCCN2)C1 + CCN1C(C(=O)NC23CCC(C(=O)O)(CC2)CC3)C(c2cccc(Cl)c2F)C2(C(=O)Nc3cc(Cl)ccc32)C12CCCCC2
b. NC(=O)C(=Cn1cnc(-c2cc(C(F)(F)F)cc(C(F)(F)F)c2)n1)c1cncnc1 + CCN1C(C(=O)NC23CCC(C(=O)O)(CC2)CC3)C(c2cccc(Cl)c2F)C2(C(=O)Nc3cc(Cl)ccc32)C12CCCCC2
input: From the items above, decide which of a and b has the lower IC50 reading. Write down the label of the entry you select.
output: b
(b: 67 nM, a: 641 nM)
